assay: Protein binding in rat plasma; type: ADME, cell-free; conditions: read-out: PPB (converted)
Assay readout: fraction unbound
Enter a number only.

What value of fraction unbound has been recorded for this entry: C/C=C/C[C@H](C)[C@@H](OC)[C@@H](C)[C@H](O)C[C@H]1OC(=O)C=C[C@H]1CC
0.07

====

assay: Protein binding in human plasma; type: ADME, cell-free; conditions: read-out: PPB (converted)
Assay readout: fraction unbound
# print the numeric value only

Recorded fraction unbound of C/C=C/C[C@H](C)[C@@H](OC)[C@@H](C)[C@H](O)C[C@H]1OC(=O)C=C[C@H]1CC [PIRONETIN] , please.
0.13

====

test: Protein binding in mouse plasma; format: ADME, cell-free; conditions: read-out: PPB (converted)
Assay readout: fraction unbound
# respond with the number and nothing more

Which fraction unbound is reported for this compound? C/C=C/C[C@H](C)[C@@H](OC)[C@@H](C)[C@H](O)C[C@H]1OC(=O)C=C[C@H]1CC [PIRONETIN]
0.02

====

experiment: Stability in mouse serum assessed as compound remaining at 1.30 ml after 24 hrs by HPLC analysis; format: ADME, cell-free; conditions: read-out: Stability
Assay readout: remaining at 24 h (%)
A number alone suffices; assume %.

Any idea what remaining at 24 h was measured for C/C=C/C[C@H](C)[C@@H](OC)[C@@H](C)[C@H](O)C[C@H]1OC(=O)C=C[C@H]1CC ?
35
